Test: inhibitors of Chlamydomonas gravitaxis, primary screen, whole organism, Chlamydomonas reinhardtii, WT vs cilia-less mutant, absorbance, 96-well (AID 463189);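 note: 0% = wild type cc124 cells in DMSO and 100% = ciliumless bld1 mutant cells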
Conditions: OD600 absorbance, 2 days, at 10 µM, stronger effect = higher value
Lab note: anything with inhibition at or over 20% counts as 1.0; the rest go in 0.0.

INSERT INTO assay_data (compound, cat) VALUES
  ('O=C(O)CCSc1ccc2ccccc2n1', 0.0),
  ('Nc1c(Br)cc2oc(-c3ccccc3)nc2c1Br', 0.0),
  ('CC1(C)Cc2c(sc3c2C(=O)N(c2ccccc2)C2=NCCCN23)CO1', 1.0),
  ('COc1cccc(N2C(=O)C(O)=C(C(C)=O)C2c2ccc(OC)c(OC)c2)c1 (stereo unspecified)', 0.0),
  ('CCN(CC)c1ncc(C)c(=O)[nH]1', 1.0);

---

Assay: inhibitors of E-selectin induction by TNFa, primary screen, imaging, HUVEC, immunofluorescence, MLSMR starter and 10KST1 sets (AID 487);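 note: 100% = median nuclei count of all wells on the same plate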
Conditions: HUVEC TNFalpha-induced E-selectin immunofluorescence imaging, at 2 µM; measured here: cell number, toxicity
MEASURED_PROPERTY: nuclei count (%)

INSERT INTO results (compound, measured_property, units_symbol, readout_value) VALUES
  ('COc1ccc(NS(=O)(=O)c2ccc(N)cc2)nn1', 'nuclei count', '%', 114),
  ('CCCOc1ccc(C2NC(=O)NC2=O)cc1 (centres undefined)', 'nuclei count', '%', 113),
  ('Cc1ccc2[nH]c3c(c2c1)CCCC3C(N)=O (centres undefined)', 'nuclei count', '%', 183),
  ('CCCc1[nH]nc2c1C(c1cccc(OC)c1)C(C#N)=C(N)O2 (centres undefined)', 'nuclei count', '%', 178);

---

Assay: inhibitors of TNFa-induced NFkB p65 translocation, primary screen, imaging, HUVEC, MLSMR starter and 10KST1 sets (AID 438);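 note: compound added about 3h40 before a 20 min TNFalpha stimulation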
Settings: HUVEC TNFa-induced p65 nuclear translocation; measured here: nuclei count (cytotoxicity indicator), at 2.08 µM
Lab note: anything with cell count at or over 500 counts as Criterion met; the rest go in Criterion not met.

INSERT INTO measurements (compound, cat) VALUES
  ('CCCOc1ccc(/C(O)=C2/C(=O)C(=O)N(CCCn3ccnc3)C2c2cccs2)cc1 (stereo unspecified)', 'Criterion met'),
  ('Nc1c(C(=O)NCC2CCCO2)c2nc3ccccc3nc2n1/N=C/c1ccncc1 (stereo unspecified)', 'Criterion not met'),
  ('CCN(CC)CCOC(=O)C(c1ccccc1)c1ccccc1', 'Criterion met'),
  ('CSc1ccccc1NC(=O)c1c(Br)cnn1C', 'Criterion met'),
  ('CC1CCc2cc(F)cc3c(O)c(C(=O)NCC4CCCO4)c(=O)n1c23 (stereo unspecified)', 'Criterion met');

---

Assay: inhibitors of TNFa-induced NFkB p65 translocation, primary screen, imaging, HUVEC, MLSMR starter and 10KST1 sets (AID 438);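 note: compound added about 3h40 before a 20 min TNFalpha stimulation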;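 for inhibition: signal is the nuclear over cytoplasmic p65 intensity ratio per well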
Details: HUVEC TNFa-induced p65 nuclear translocation; at 2 µM, stronger effect = higher value, 0% TNFa-plus-vehicle, 100% no-TNFa wells
MEASURED_PROPERTY: inhibition (%)

INSERT INTO measurements (compound, readout_value) VALUES
  ('C[C@]12C[C@H](O)[C@H]3[C@@H](CCC4=CC(=O)CC[C@@]43C)[C@@H]1CC[C@@H]2C(=O)CO', -3.6),
  ('COCCCNc1nc2c(c(=O)n(C)c(=O)n2C)n1Cc1cccc(OC)c1', -9.7),
  ('CSc1nnc2n(C3CCCCC3)c(=O)c3c4c(sc3n12)CCCC4', -10.6),
  ('COc1ccc(N2C(=O)CN=C2Nc2nc(C)cc(C)n2)cc1', -16.6),
  ('COc1ccc2c(C)nc(Nc3nc(C)cc(C)n3)nc2c1', -5.8),
  ('Cc1cc(C)cc(CC2CC(=O)N(c3cc(C)on3)C2=O)c1 (centres undefined)', -7),
  ('O=C(c1cccs1)N1CCC(N2CCN(c3ccccc3)CC2)CC1', -7.3),
  ('CCC1(C)Cc2c(sc3[nH]c(=O)[nH]c(=O)c23)CS1 (centres undefined)', -8.2),
  ('CNC(=O)c1cc2c(ccc3ccccc32)oc1=N', -4);

---

Biological target: Voltage-gated potassium channel subunit beta-2 (Rattus norvegicus)
Test: KvBeta enzyme negative modulators, primary screen, biochemical, NADPH fluorescence (AID 622);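 note: slope of raw intensity against log time taken from 70 to 1610 s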
Settings: recombinant KvBeta, 4-cyanobenzaldehyde reduction, at 10 µM, stronger effect = higher value
Lab note: anything with fluorescence slope at or over -0.4 counts as yes (1); the rest go in no (0).

INSERT INTO results (molecule, cat) VALUES
  ('NS(=O)(=O)c1cc2c(cc1Cl)NC(CSCc1ccccc1)=NS2(=O)=O', 'no (0)'),
  ('COc1ccccc1C1C(C#N)=C(N)Oc2cc(C)n(Cc3ccccn3)c(=O)c21 (stereo not drawn)', 'no (0)'),
  ('Clc1ccc(-n2ncc3c(NCCCn4ccnc4)ncnc32)cc1', 'yes (1)'),
  ('COC(=O)C(NC(C)=O)(Nc1ccccn1)C(F)(F)F (stereo not drawn)', 'no (0)'),
  ('COc1ccc(C(=O)NCCCCCC(=O)O)cc1OC', 'no (0)'),
  ('CCOc1nc(Oc2cccc(C(=O)O)c2)nc(Oc2cccc(C(=O)O)c2)n1', 'no (0)'),
  ('Cc1ccc(N2C(=O)C3ON(c4ccccc4)C(c4ccncc4)C3C2=O)c(C)c1 (stereo not drawn)', 'no (0)'),
  ('Cc1cc(N2CCN(C3CCCC3)CC2)n2c(nc3ccccc32)c1C#N', 'yes (1)'),
  ('N/C(CCN1CCCCC1)=N/O', 'no (0)'),
  ('COc1cccc(-c2nnc3sc(C4CCCCC4)nn23)c1', 'no (0)'),
  ('Cc1cccc(C)c1OCC(O)CNS(=O)(=O)c1ccccc1C(=O)N1CCCCC1 (stereo not drawn)', 'yes (1)'),
  ('COC(=O)CNC(=O)c1c(C)cc(=O)oc1C', 'yes (1)'),
  ('CN1CCCN(C(c2ccccc2)c2ccc(Cl)cc2)CC1 (stereo not drawn)', 'no (0)'),
  ('CC(C)c1cc(NCCN2CCOCC2)n2c(nc3ccccc32)c1C#N', 'no (0)'),
  ('Cc1ccccc1-c1nn2c(-c3ccccc3)nnc2s1', 'no (0)'),
  ('Cc1ccc(C(=O)C2=C(O)C(=O)N(c3ncccn3)C2c2cccc(Cl)c2)o1 (stereo not drawn)', 'yes (1)'),
  ('Cc1cccc(N(Cc2cc3ccccc3[nH]c2=O)C(=O)c2ccco2)c1C', 'no (0)'),
  ('COCc1cc(=O)[nH]c(Nc2nc3ccccc3o2)n1', 'no (0)'),
  ('COc1cccc2c1C(=O)c1c(O)c3c(c(O)c1C2=O)C[C@@](O)(C(=O)CO)C[C@@H]3O[C@H]1C[C@H](N)[C@H](O)[C@H](C)O1', 'no (0)'),
  ('CC(=O)OCC(=O)[C@@]1(O)CC[C@H]2[C@@H]3CCC4=CC(=O)CC[C@]4(C)[C@H]3C(=O)C[C@@]21C', 'no (0)'),
  ('CCC1(C)Cc2c(C#N)c(N)sc(=S)c2CO1 (stereo not drawn)', 'no (0)'),
  ('CCOc1ccc(C2C(C(=O)c3ccc(C)o3)=C(O)C(=O)N2CCN2CCOCC2)cc1OC (stereo not drawn)', 'no (0)');

---

Biological target: Voltage-gated potassium channel subunit beta-2 (Rattus norvegicus) (UniProt P62483)
Sequence (P62483 whole entry, looked up): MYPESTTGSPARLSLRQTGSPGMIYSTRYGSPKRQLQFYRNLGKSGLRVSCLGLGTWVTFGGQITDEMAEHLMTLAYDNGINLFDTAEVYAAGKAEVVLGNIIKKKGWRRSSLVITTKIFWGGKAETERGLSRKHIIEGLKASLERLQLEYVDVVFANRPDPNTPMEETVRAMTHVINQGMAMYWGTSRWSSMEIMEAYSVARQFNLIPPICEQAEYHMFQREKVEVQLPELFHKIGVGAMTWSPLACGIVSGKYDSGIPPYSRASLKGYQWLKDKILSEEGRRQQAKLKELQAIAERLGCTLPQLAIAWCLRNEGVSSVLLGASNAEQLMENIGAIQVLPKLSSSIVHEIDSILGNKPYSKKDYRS
Experiment: KvBeta positive modulators, primary screen, biochemical, NADPH fluorescence (AID 623);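 note: fluorescence intensity change per second fitted from 20 to 320 s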
Conditions: Recombinant KvBeta, NADPH fluorescence decrease slope, 10 min; at 10 µM; stronger effect = lower value
MEASURED_PROPERTY: NADPH fluorescence slope

INSERT INTO measurements (compound, measured_property, readout_value) VALUES
  ('COc1cccc(NC(=O)CC2SC(=Nc3ccccc3)NC2=O)c1 (stereo not given)', 'NADPH fluorescence slope', '-1.5e-05'),
  ('Cc1sccc1C1C(C#N)=C(N)SC(N)=C1C#N', 'NADPH fluorescence slope', '-2.2e-05'),
  ('CC(C)OC(=O)CC1=NC(=O)CS1', 'NADPH fluorescence slope', '-4.2e-05'),
  ('Cn1c(=O)c2c(ncn2CCO)n(C)c1=O', 'NADPH fluorescence slope', '-4.4e-05'),
  ('CCN1C(=O)CC(N2CCN(c3ccc(OC)cc3)CC2)C1=O (stereo not given)', 'NADPH fluorescence slope', '-6.5e-05'),
  ('C=CCSc1nc(C)c(CC=C)c(=O)[nH]1', 'NADPH fluorescence slope', '-1.2e-06'),
  ('Nc1ccc(Cl)cc1/C(=N/O)c1ccccc1', 'NADPH fluorescence slope', '9e-06'),
  ('COc1cccc(Cn2c(NCC(C)C)nc3c2c(=O)n(C)c(=O)n3C)c1', 'NADPH fluorescence slope', '4.1e-05'),
  ('CCCOc1ccc(/C(O)=C2/C(=O)C(=O)N(CCCn3ccnc3)C2c2cccs2)cc1 (stereo not given)', 'NADPH fluorescence slope', '-3.4e-05'),
  ('CCC(C)Nc1nc(-c2cccc(OC)c2O)nc2ccccc12 (stereo not given)', 'NADPH fluorescence slope', '-5e-05'),
  ('c1ccc(N2CCN(c3nc(NCc4ccco4)c4ccccc4n3)CC2)cc1', 'NADPH fluorescence slope', '-2.5e-05'),
  ('CCCNC(=O)NS(=O)(=O)c1ccc(Cl)cc1', 'NADPH fluorescence slope', '-1.5e-05'),
  ('Cc1nc2c(c(=O)n1CC1CCCO1)c1nc3ccccc3nc1n2CC(C)C (stereo not given)', 'NADPH fluorescence slope', '-6.4e-05'),
  ('Cc1ncc([N+](=O)[O-])n1CC(O)CCl (stereo not given)', 'NADPH fluorescence slope', '2.8e-05'),
  ('CCCCNC(=O)C(C#N)c1nc2ccccc2nc1N1CCN(Cc2ccc3c(c2)OCO3)CC1 (stereo not given)', 'NADPH fluorescence slope', '-1.5e-05'),
  ('CC(=O)[C@@]1(O)CC[C@H]2[C@@H]3C[C@H](C)C4=CC(=O)CC[C@]4(C)[C@H]3CC[C@@]21C', 'NADPH fluorescence slope', -0.000112),
  ('CCOC(=O)CSc1nc(-c2ccncc2)ccc1C#N', 'NADPH fluorescence slope', '-2e-05'),
  ('CN1CCN(C(=O)CSc2nc(-c3cccs3)ccc2C#N)CC1', 'NADPH fluorescence slope', '-1.3e-05'),
  ('Cn1c(OCc2ccc3c(c2)OCO3)nc2c1c(=O)n(Cc1cccc(Cl)c1)c(=O)n2C', 'NADPH fluorescence slope', -0.000102),
  ('COc1ccc(C(=O)c2sc(NC(C)C)nc2N)cc1OC', 'NADPH fluorescence slope', '-6.7e-06'),
  ('CCC(NC(=O)Nc1cc(OC)c(OC)c(OC)c1)(C(F)(F)F)C(F)(F)F', 'NADPH fluorescence slope', '-4e-05'),
  ('O=C1C2CC=C(Cl)CC2C(=O)N1CNc1ccccn1 (stereo not given)', 'NADPH fluorescence slope', '-1.4e-05'),
  ('Cc1ccc(C2/C(=C(/O)c3cnn(-c4ccccc4)c3C)C(=O)C(=O)N2CCN2CCOCC2)o1 (stereo not given)', 'NADPH fluorescence slope', '-4.5e-05'),
  ('COC(=O)CC1=NC(=O)CS1', 'NADPH fluorescence slope', '-8.9e-06'),
  ('O=C(O)C1CCCCN1S(=O)(=O)c1cccc2nsnc12 (stereo not given)', 'NADPH fluorescence slope', '-3.9e-05'),
  ('COc1nc(N(C)S(=O)(=O)c2ccc(C)cc2)nc(C)c1Cl', 'NADPH fluorescence slope', '-1.7e-05'),
  ('Cc1nc(N2CCOCC2)c(C#N)c2c1COC(C)(C)C2', 'NADPH fluorescence slope', '-4.3e-05'),
  ('O=C(O)CCc1cc(I)c(Oc2ccc(O)c(I)c2)c(I)c1', 'NADPH fluorescence slope', '-5.4e-05'),
  ('CNc1oc(-c2ccc(Cl)cc2)nc1C#N', 'NADPH fluorescence slope', '-4.5e-06'),
  ('Cc1ccc2cc(CN(C(=O)c3ccco3)c3ccccc3C)c(=O)[nH]c2c1', 'NADPH fluorescence slope', '1.8e-05');
